Listed molecules paired with reported IC50
molecular target: A disintegrin and metalloproteinase with thrombospondin motifs 5 (Homo sapiens, UniProt Q9UNA0); test: Inhibition of human recombinant aggrecanase 2 after 150 mins by fluorescence plate reader
Sequence (Q9UNA0 whole entry): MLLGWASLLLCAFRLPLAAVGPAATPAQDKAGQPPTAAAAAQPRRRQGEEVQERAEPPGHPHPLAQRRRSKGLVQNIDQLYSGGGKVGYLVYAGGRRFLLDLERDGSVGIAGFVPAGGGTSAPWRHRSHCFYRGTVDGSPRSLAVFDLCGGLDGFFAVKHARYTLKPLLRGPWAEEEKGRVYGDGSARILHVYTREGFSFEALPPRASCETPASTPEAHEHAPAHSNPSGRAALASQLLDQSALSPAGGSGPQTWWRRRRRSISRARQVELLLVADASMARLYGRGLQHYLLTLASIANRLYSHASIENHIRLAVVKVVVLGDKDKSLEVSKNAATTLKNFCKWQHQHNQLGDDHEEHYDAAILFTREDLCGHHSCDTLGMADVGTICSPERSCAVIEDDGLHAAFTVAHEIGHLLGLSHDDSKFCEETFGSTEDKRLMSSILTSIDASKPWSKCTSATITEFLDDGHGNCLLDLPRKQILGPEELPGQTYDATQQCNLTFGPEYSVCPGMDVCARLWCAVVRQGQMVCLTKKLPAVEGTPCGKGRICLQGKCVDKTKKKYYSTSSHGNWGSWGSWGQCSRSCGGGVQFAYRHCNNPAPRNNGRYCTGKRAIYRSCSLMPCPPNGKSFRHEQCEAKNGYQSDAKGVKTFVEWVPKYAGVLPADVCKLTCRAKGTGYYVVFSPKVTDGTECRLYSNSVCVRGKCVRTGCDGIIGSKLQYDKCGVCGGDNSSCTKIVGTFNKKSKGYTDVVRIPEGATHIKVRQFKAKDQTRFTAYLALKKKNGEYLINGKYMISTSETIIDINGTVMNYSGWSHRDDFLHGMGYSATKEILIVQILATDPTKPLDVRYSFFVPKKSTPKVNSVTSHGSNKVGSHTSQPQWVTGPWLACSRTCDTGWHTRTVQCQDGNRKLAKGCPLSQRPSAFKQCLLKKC
Kindly provide the numeric value in nM only, without the unit symbol.

Worked examples follow.
>>> experimental_result("C[C@@H]1CN(S(=O)(=O)N[C@@]2(C(=O)O)[C@H](C)[C@@H]2c2ccccc2)CCN1c1ccc(C2CC2)cc1")
270
>>> experimental_result("CC1(C)C[C@@H](O)CN(S(=O)(=O)c2ccc(OCc3ccc(Cl)cc3Cl)cc2)[C@H]1C(=O)NO")
1.4

Asked: GET /values?readout=IC50&item= `C[C@@H]1CN(S(=O)(=O)N[C@@]2(C(=O)O)[C@H](C)[C@@H]2c2ccccc2)CCN1c1cc(C(C)(F)F)on1`
Given back: 130

Asked: GET /values?readout=IC50&item= `COCc1cc(N2CCN(S(=O)(=O)N[C@@]3(C(=O)O)[C@H](C)[C@@H]3c3ccccc3)C[C@H]2C)no1`
Given back: 67

---

test: AUC in Sprague-Dawley rat at 10 mg/kg, po; type: ADME, organism-based; set-up: dose 10 mg/kg, route oral; conditions: plasma
Listed molecules paired with reported AUC
Kindly provide the numeric value in µM·h only, without the unit symbol.

>>> experimental_result("C[C@@H]1[C@](C)(c2ccccc2)[C@]1(NS(=O)(=O)N1CCn2c(nc3cc(F)ccc32)C1)C(=O)O")
76.9

Asked: GET /values?readout=AUC&item= `C[C@@H]1[C@](C)(c2ccccc2)[C@]1(NS(=O)(=O)N1CCc2c(nc3cc(F)ccn23)C1)C(=O)O`
Given back: 421

Asked: GET /values?readout=AUC&item= `C[C@@H]1CN(S(=O)(=O)N[C@@]2(C(=O)O)[C@H](C)[C@]2(C)c2ccccc2)CCN1c1cc(C(F)F)on1`
Given back: 17.8

Asked: GET /values?readout=AUC&item= `C[C@@H]1CN(S(=O)(=O)N[C@@]2(C(=O)O)[C@H](C)[C@]2(C)c2ccccc2)CCN1c1ccc(C#N)s1`
Given back: 88.4

---

molecular target: UniProt:Q9UNA0; assay: Inhibition of human recombinant aggrecanase 2 after 150 mins by fluorescence plate reader
quantity: pIC50
pIC50 field: float, defined as -log10 of concentration (mol/L).

Worked examples follow.
>>> experimental_result("C[C@@H]1[C@H](c2ccccc2)[C@]1(NS(=O)(=O)c1cc2[nH]c3ccc(F)cc3c2s1)C(=O)O")
8.00
>>> experimental_result("C[C@@H]1[C@](C)(c2ccccc2)[C@]1(NS(=O)(=O)N1CCc2c(nn3cc(F)ccc23)C1)C(=O)O")
8.00
>>> experimental_result("C[C@@H]1CN(S(=O)(=O)N[C@@]2(C(=O)O)[C@H](C)[C@@H]2c2ccccc2)CCN1c1ccc(Cl)cc1")
7.43

Okay, now this compound:
Asked: GET /values?readout=pIC50&item= `C[C@@H]1[C@H](c2ccccc2)[C@]1(NS(=O)(=O)c1cc2nc3cc(Cl)ccn3c2s1)C(=O)O`
Given back: 7.64

---

Listed compounds paired with reported Vd
test: Volume of distribution at steady state in Sprague-Dawley rat at 1 mg/kg, iv; format: ADME, organism-based; parameters: dose 1 mg/kg, route intravenous; settings: in vivo, read-out: Vdss
Kindly provide the numeric value in L/kg only, without the unit symbol.

Asked: GET /values?readout=Vd&item= `C[C@@H]1CN(S(=O)(=O)N[C@@]2(C(=O)O)[C@H](C)[C@]2(C)c2ccccc2)CCN1c1cc(C(F)F)on1`
Given back: 1.9

Asked: GET /values?readout=Vd&item= `C[C@@H]1[C@](C)(c2ccccc2)[C@]1(NS(=O)(=O)N1CCc2c(nc3cc(F)ccn23)C1)C(=O)O`
Given back: 0.25

Asked: GET /values?readout=Vd&item= `C[C@@H]1[C@](C)(c2ccccc2)[C@]1(NS(=O)(=O)N1CCn2c(nc3cc(F)ccc32)C1)C(=O)O`
Given back: 0.7

Asked: GET /values?readout=Vd&item= `C[C@@H]1CN(S(=O)(=O)N[C@@]2(C(=O)O)[C@H](C)[C@]2(C)c2ccccc2)CCN1c1ccc(C#N)s1`
Given back: 2.6

---

Listed compounds paired with reported Cmax
test: Cmax in Sprague-Dawley rat at 10 mg/kg, po; format: ADME, organism-based; set-up: dose 10 mg/kg, route oral; conditions: in vivo
Kindly provide the numeric value in µM only, without the unit symbol.

Asked: GET /values?readout=Cmax&item= `C[C@@H]1[C@](C)(c2ccccc2)[C@]1(NS(=O)(=O)N1CCc2c(nc3cc(F)ccn23)C1)C(=O)O`
Given back: 54.1

Asked: GET /values?readout=Cmax&item= `C[C@@H]1CN(S(=O)(=O)N[C@@]2(C(=O)O)[C@H](C)[C@]2(C)c2ccccc2)CCN1c1cc(C(F)F)on1`
Given back: 4.9

Asked: GET /values?readout=Cmax&item= `C[C@@H]1CN(S(=O)(=O)N[C@@]2(C(=O)O)[C@H](C)[C@]2(C)c2ccccc2)CCN1c1ccc(C#N)s1`
Given back: 15.9

Asked: GET /values?readout=Cmax&item= `C[C@@H]1[C@](C)(c2ccccc2)[C@]1(NS(=O)(=O)N1CCn2c(nc3cc(F)ccc32)C1)C(=O)O`
Given back: 17.4

---

target: UniProtKB P14780; assay: Inhibition of human recombinant MMP9 after 60 mins by fluorescence plate reader
Sequence (P14780 whole entry): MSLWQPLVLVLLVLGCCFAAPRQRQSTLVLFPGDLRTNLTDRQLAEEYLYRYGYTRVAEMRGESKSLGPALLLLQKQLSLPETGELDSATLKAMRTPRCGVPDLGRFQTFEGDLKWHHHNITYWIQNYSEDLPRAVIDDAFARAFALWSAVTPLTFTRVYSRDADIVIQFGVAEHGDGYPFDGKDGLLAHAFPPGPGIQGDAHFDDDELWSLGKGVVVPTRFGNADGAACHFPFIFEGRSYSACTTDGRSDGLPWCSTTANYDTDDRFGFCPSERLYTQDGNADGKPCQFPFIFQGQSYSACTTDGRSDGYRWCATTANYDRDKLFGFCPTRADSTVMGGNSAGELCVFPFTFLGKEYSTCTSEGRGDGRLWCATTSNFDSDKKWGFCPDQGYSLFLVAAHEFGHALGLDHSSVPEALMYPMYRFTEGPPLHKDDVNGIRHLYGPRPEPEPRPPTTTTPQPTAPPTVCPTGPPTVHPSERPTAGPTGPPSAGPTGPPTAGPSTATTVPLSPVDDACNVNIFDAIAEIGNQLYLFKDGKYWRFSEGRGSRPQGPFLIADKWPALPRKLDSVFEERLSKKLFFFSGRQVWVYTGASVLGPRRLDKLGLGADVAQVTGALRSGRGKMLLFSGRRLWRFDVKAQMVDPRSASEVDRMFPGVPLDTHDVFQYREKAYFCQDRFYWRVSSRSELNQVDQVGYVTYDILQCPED
quantity: IC50 (nM)
Kindly provide the numeric value in nM only, without the unit symbol.

Asked: GET /values?readout=IC50&item= `C[C@@H]1[C@H](c2ccccc2)[C@]1(NS(=O)(=O)c1ccc(-n2cc(Cl)cn2)s1)C(=O)O`
Given back: 58

---

target: Interstitial collagenase (Homo sapiens); assay: Inhibition of human recombinant MMP1 after 60 mins by fluorescence plate reader
Sequence (P03956 whole entry): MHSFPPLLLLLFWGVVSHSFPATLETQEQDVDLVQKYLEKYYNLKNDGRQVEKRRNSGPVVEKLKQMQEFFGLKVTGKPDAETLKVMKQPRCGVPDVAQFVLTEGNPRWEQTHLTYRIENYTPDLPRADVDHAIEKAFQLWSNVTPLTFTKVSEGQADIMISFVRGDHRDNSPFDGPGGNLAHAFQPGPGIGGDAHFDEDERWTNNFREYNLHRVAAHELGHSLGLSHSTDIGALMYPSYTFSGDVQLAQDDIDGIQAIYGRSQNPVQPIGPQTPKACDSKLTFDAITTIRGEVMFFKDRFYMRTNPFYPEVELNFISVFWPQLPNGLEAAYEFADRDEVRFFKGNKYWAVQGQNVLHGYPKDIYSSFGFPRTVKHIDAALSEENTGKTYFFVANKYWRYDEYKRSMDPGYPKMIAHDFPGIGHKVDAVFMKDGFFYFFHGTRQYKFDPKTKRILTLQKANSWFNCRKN
pIC50: −log10 of the molar value.
quantity: pIC50

Worked examples follow.
>>> experimental_result("C[C@@H]1[C@H](c2ccccc2)[C@]1(NS(=O)(=O)c1cc2nc3cc(Cl)ccn3c2s1)C(=O)O")
5.82
>>> experimental_result("COCc1cc(N2CCN(S(=O)(=O)N[C@@]3(C(=O)O)[C@H](C)[C@@H]3c3ccccc3)C[C@H]2C)no1")
"< 5.00"

Asked: GET /values?readout=pIC50&item= `C[C@@H]1CN(S(=O)(=O)N[C@@]2(C(=O)O)[C@H](C)[C@@H]2c2ccccc2)CCN1c1ccc(Cl)cc1`
Given back: < 5.00

Asked: GET /values?readout=pIC50&item= `O=C(NO)[C@@H](NCC1CC1)[C@@H](Cc1cccc(O)c1)C(=O)N[C@H]1c2ccccc2C[C@H]1O`
Given back: < 5.00

Asked: GET /values?readout=pIC50&item= `C[C@@H]1[C@H](c2ccccc2)[C@]1(NS(=O)(=O)N1CCc2c(nc3cc(F)ccn23)C1)C(=O)O`
Given back: < 5.00

Asked: GET /values?readout=pIC50&item= `C[C@@H]1[C@H](c2ccccc2)[C@]1(NS(=O)(=O)c1cc2[nH]c3ccc(F)cc3c2s1)C(=O)O`
Given back: 5.89

Asked: GET /values?readout=pIC50&item= `C[C@@H]1[C@H](c2ccccc2)[C@]1(NS(=O)(=O)N1CCn2c(cc3cc(Cl)sc32)C1)C(=O)O`
Given back: < 5.00

Asked: GET /values?readout=pIC50&item= `C[C@@H]1[C@](C)(c2ccccc2)[C@]1(NS(=O)(=O)N1CCc2c(nc3cc(F)ccn23)C1)C(=O)O`
Given back: < 5.00

---

molecular target: UniProt P03956; assay: Inhibition of human recombinant MMP1 after 60 mins by fluorescence plate reader
quantity: IC50

>>> experimental_result("Cc1cnn(-c2ccc(S(=O)(=O)N[C@@]3(C(=O)O)[C@H](C)[C@@H]3c3ccccc3)s2)c1")
"< 0.3 µM"
>>> experimental_result("C[C@@H]1[C@H](c2ccccc2)[C@]1(NS(=O)(=O)N1CCc2c(nc3cc(Cl)ccn23)C1)C(=O)O")
"> 10 µM"
>>> experimental_result("C[C@@H]1[C@H](c2ccccc2)[C@]1(NS(=O)(=O)N1CCn2c(nc3ccc(F)cc32)C1)C(=O)O")
"> 10 µM"

Okay, now this molecule:
Asked: Provide the documented IC50 with UniProt P03956 as the system for `C[C@@H]1CN(S(=O)(=O)N[C@@]2(C(=O)O)[C@H](C)[C@@H]2c2ccccc2)CCN1c1ccc(C#N)s1`
Given back: > 10 µM

---

molecular target: Disintegrin and metalloproteinase domain-containing protein 17 (Homo sapiens, UniProt P78536); assay: Inhibition of human recombinant TACE after 60 mins by fluorescence plate reader
Sequence (P78536 whole entry, the tested form may be a part): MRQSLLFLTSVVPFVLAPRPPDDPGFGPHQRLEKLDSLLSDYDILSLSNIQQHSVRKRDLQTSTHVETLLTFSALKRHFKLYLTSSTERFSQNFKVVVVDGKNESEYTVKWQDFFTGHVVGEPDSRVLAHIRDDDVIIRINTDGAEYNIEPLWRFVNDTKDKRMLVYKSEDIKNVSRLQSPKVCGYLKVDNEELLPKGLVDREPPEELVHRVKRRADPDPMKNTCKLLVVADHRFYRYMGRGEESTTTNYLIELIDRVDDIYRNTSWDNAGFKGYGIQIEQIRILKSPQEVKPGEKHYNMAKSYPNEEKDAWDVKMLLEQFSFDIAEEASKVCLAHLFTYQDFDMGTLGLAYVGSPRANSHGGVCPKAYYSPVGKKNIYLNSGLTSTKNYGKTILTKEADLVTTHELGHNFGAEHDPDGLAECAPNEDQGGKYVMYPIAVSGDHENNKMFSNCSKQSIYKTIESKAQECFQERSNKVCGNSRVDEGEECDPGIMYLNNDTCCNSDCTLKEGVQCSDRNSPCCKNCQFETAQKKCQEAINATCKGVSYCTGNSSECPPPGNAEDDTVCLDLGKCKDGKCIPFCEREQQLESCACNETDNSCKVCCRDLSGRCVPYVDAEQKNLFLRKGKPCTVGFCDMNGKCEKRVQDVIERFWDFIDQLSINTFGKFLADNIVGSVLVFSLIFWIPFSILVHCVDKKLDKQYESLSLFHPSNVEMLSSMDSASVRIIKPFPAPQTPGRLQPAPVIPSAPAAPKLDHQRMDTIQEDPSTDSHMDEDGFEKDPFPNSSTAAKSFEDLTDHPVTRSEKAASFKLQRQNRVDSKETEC
quantity: IC50

Worked examples follow.
>>> experimental_result("C[C@@H]1[C@H](c2ccccc2)[C@]1(NS(=O)(=O)N1CC=C(c2ccc(Cl)cc2)CC1)C(=O)O")
"> 10 µM"
>>> experimental_result("Cc1cnn(-c2ccc(S(=O)(=O)N[C@@]3(C(=O)O)[C@H](C)[C@@H]3c3ccccc3)s2)c1")
"> 10 µM"
>>> experimental_result("COCc1cc(N2CCN(S(=O)(=O)N[C@@]3(C(=O)O)[C@H](C)[C@@H]3c3ccccc3)C[C@H]2C)no1")
"> 10 µM"
>>> experimental_result("C[C@@H]1[C@H](c2ccccc2)[C@]1(NS(=O)(=O)N1CCc2c(nn3cc(F)ccc23)C1)C(=O)O")
"> 10 µM"
>>> experimental_result("C[C@@H]1[C@H](c2ccccc2)[C@]1(NS(=O)(=O)N1Cc2nc3cc(Cl)ccn3c2C1)C(=O)O")
"> 10 µM"

Asked: GET /values?readout=IC50&item= `C[C@@H]1[C@H](c2ccccc2)[C@]1(NS(=O)(=O)c1cc2[nH]c3cc(Cl)ccc3c2s1)C(=O)O`
Given back: 3.8 µM

Asked: GET /values?readout=IC50&item= `C[C@@H]1[C@H](c2ccccc2)[C@]1(NS(=O)(=O)N1CCn2c(nc3cc(C#N)ccc32)C1)C(=O)O`
Given back: > 10 µM

Asked: GET /values?readout=IC50&item= `C[C@@H]1CN(S(=O)(=O)N[C@@]2(C(=O)O)[C@H](C)[C@@H]2c2ccccc2)CCN1c1cc(C(C)(F)F)on1`
Given back: > 10 µM

Asked: GET /values?readout=IC50&item= `C[C@@H]1CN(S(=O)(=O)N[C@@]2(C(=O)O)[C@H](C)[C@]2(C)c2ccccc2)CCN1c1ccc(C#N)s1`
Given back: > 10 µM

Asked: GET /values?readout=IC50&item= `C[C@@H]1[C@H](c2ccccc2)[C@]1(NS(=O)(=O)N1CCn2c(cc3cc(Cl)sc32)C1)C(=O)O`
Given back: > 10 µM

Asked: GET /values?readout=IC50&item= `C[C@@H]1CN(S(=O)(=O)N[C@@]2(C(=O)O)[C@H](C)[C@]2(C)c2ccccc2)CCN1c1cc(C(F)F)on1`
Given back: > 10 µM

Asked: GET /values?readout=IC50&item= `C[C@@H]1[C@H](c2ccccc2)[C@]1(NS(=O)(=O)N1CCn2c(nc3ccc(F)cc32)C1)C(=O)O`
Given back: > 10 µM
